experiment: Mycobacterium tuberculosis growth inhibition, primary screen (AID 1259343); details: at 10 µM, stronger effect = higher value
Hit rate of the full screen: of about 6,200 compounds, about 2,900 (47%) were called active. So high a share suggests a set chosen from earlier hits. This is one part of the list.
Answer No if inhibition is under 70%, and Yes if it is 70% or more.

Below are worked cases with known answers.
Cc1cc(N2CCCCC2)nc(Nc2ccc(NS(=O)(=O)c3ccc4nc(C)sc4c3)cc2)n1: No
O=C(Nc1nc(-c2ccc(Br)s2)cs1)c1ccc(Br)s1: Yes
Cc1ccccc1Cn1c(C)c(C(=O)NCc2ccccc2C(F)(F)F)sc1=O: No
CN(CC1COc2ccccc2O1)C(=O)NCCc1ccsc1 (centres undefined): No
CCc1cc(=O)[nH]c(-n2nc(C)cc2NC(=O)Cc2ccc(OC)cc2)n1: Yes

Query :: Does inhibition meet or surpass 70% for Cc1ccc(-c2c(N)n[nH]c2C(F)(F)F)cc1 ?
Result :: No

Query :: Does inhibition meet or surpass 70% for Clc1cc(CNCC2COc3ccccc3O2)cc2c1OCCO2 (centres undefined) ?
Result :: No

Query :: Does inhibition meet or surpass 70% for CCn1nnc2c(N3CCC(Cc4ccccc4)CC3)ncnc21 ?
Result :: Yes

====

experiment: Mycobacterium tuberculosis growth inhibition, primary screen (AID 1259343); details: at 10 µM
In all, about 6,200 compounds went through this assay and about 2,900 (47%) were called active. No stated cut-off is given here; in the data, active means inhibition above about 50%; inactive means the rest. So high a share suggests a set chosen from earlier hits. The list shows a part of the results.
// one of active, inactive, no free text

Query :: Please indicate how the test categorized COc1ccc(NC(=O)c2c[nH]c3c(c(C)nn3-c3ccccc3)c2=O)cc1 .
Result :: active

Query :: Please indicate how the test categorized Cc1nn(-c2ccccc2)c2[nH]cc(C(=O)Nc3ccc(N(C)C)cc3)c(=O)c12 .
Result :: inactive

Query :: Please indicate how the test categorized COc1cccc(NC(=O)c2c[nH]c3c(c(C)nn3-c3ccccc3)c2=O)c1 .
Result :: active

Query :: Please indicate how the test categorized CC(C)(C)C(=O)NCCc1cn(-c2ccccc2)c2ccccc12 .
Result :: inactive

Query :: Please indicate how the test categorized CCC(C)(C)NS(=O)(=O)c1ccc(Cl)c(Cl)c1 .
Result :: active

====

inhibition for assorted compounds
test: Mycobacterium tuberculosis growth inhibition, primary screen (AID 1259343); details: at 10 µM, stronger effect = higher value
Out of some 6,200 compounds screened, about 2,900 (47%) were called active. So high a share suggests a set chosen from earlier hits. Some of the results follow.
Report the value in % with no unit label.

C1=C(CCNc2nncc(-c3ccccc3)n2)CCCC1: 61.1
CC(C)(C)c1ccc(-c2ccnc3nc(N4CCN(C(=O)c5ccc([N+](=O)[O-])o5)CC4)nn23)cc1: 74.3
CC(C)c1ccc(Nc2nnc(SCCO)s2)cc1: 25.5
O=C1NC(C2=Cc3cc(Cl)ccc3OC2)Nc2ccccc21 (stereo unspecified): 0.99

Query :: // fetch inhibition given entry CC(C)CSc1nnc(Nc2ccc(C(C)C)cc2)s1
Result :: 92.2

Query :: // fetch inhibition given entry O=C(/C=C(\O)c1ccccc1)c1ccccc1O
Result :: 100

====

assay: Mycobacterium tuberculosis growth inhibition, primary screen (AID 1259343); conditions: at 10 µM, stronger effect = higher value
The campaign covered roughly 6,200 compounds. About 2,900 (47%) were called active. The set was probably picked from earlier hits. This is one part of the list.
assayMetric: inhibition (%)
Report the value in % with no unit label.

Some compounds with recorded inhibition:
CC1CCc2sc(C(=O)NCc3ccc4c(c3)OCO4)cc2C1 (stereo unspecified): -11
COc1ccccc1C1(O)CCN(CCCn2c3ccccc3c3ccccc32)CC1: 51.9
CCOc1ccc(OCCCCOc2ccc(F)cc2)cc1: 8.32
Cc1n[nH]c(C)c1CCCCCCOc1ccc(F)cc1: 87.3
CCCCOc1ccc(C(=O)Nc2cc(C)nn2-c2nc(C)cc(=O)[nH]2)cc1: 101
O=C(NCC(=O)N1CCN(Cc2ccc(OC(F)(F)F)cc2)CC1)c1ccco1: 94.3
Cc1cc(Br)cc(Cl)c1NC(=O)C1(C)CC1(Cl)Cl (stereo unspecified): -15.4
CCOc1ccc(C(=O)Nc2cc(C)nn2-c2nc(C)cc(=O)[nH]2)cc1: 102
Cc1cc(NC(=O)C2CC2)sc1C(=O)n1ccnc1: 48.7
COc1cccc(COc2coc(CN3CCCN(S(=O)(=O)c4ccc(OC(F)(F)F)cc4)CC3)cc2=O)c1: 10.6

Now for the compound whose inhibition we want.
Query :: // fetch inhibition given entry Fc1ccc(CN2CCC(Cc3ccc(-c4ccccc4)cc3)CC2)cc1C(F)(F)F
Result :: 59
